Hi there, I'd appreciate the recorded fold change of affinity for every entry that follows.
- Target Entity: Human CD137 ECD (human)
- Sequence (chain, as listed by the source limits assumed): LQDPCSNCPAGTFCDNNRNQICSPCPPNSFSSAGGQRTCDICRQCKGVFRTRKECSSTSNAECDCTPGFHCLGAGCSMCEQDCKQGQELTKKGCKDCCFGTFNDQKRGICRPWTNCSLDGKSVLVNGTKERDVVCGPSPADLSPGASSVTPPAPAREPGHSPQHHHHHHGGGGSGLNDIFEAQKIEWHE
- Assay Text: single mutant vs template dBBDu183H
Please state the figure in fold; there is no need to write the unit.

## Input Fill in reported fold change of affinity for this entry: H183/L072 VH K52W (antibody, name in Kabat numbering, V domains shown) VH: QVQLVESGGGLVQPGRSLRLSCAASGFTFSNAWMHWVRQAPGKGLEWVAQIWDKGNAYAAYYAPSVKGRFTISRDDSKNSIYLQMNSLKTEDTAVYYCHYVHYASASTVLPAFGVDAWGQGTTVTVSS VL: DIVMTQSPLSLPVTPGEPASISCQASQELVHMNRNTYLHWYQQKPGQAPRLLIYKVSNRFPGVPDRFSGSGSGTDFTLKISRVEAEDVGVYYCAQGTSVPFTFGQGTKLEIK
## Output 0

## Input Write down fold change of affinity measured for item H183/L072 VH Y55P (antibody, name in Kabat numbering, V domains shown) VH: QVQLVESGGGLVQPGRSLRLSCAASGFTFSNAWMHWVRQAPGKGLEWVAQIKDKGNAPAAYYAPSVKGRFTISRDDSKNSIYLQMNSLKTEDTAVYYCHYVHYASASTVLPAFGVDAWGQGTTVTVSS VL: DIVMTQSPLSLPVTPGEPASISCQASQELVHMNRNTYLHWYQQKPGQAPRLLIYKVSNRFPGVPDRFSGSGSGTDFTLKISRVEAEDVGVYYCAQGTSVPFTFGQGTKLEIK
## Output 0

## Input Give reported fold change of affinity value for H183/L072 VH F29N (antibody, name in Kabat numbering, V domains shown) VH: QVQLVESGGGLVQPGRSLRLSCAASGFTNSNAWMHWVRQAPGKGLEWVAQIKDKGNAYAAYYAPSVKGRFTISRDDSKNSIYLQMNSLKTEDTAVYYCHYVHYASASTVLPAFGVDAWGQGTTVTVSS VL: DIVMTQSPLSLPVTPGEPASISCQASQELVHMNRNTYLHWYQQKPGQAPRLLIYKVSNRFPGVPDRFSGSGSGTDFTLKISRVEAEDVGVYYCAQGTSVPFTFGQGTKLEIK
## Output 0
